Tested on: HCT-116 cells
Test: MTT cytotoxicity assay, HCT-116
Assay type: cell-based, human
Conditions: Homo sapiens, HCT-116, 72 h, read-out: GI50 ± SD (μM) HCT-116
PROPERTY LABEL: GI50 (µM)

>>> print(df.to_string())
                            chemical_string  bound_operator  recorded_number
0  COc1cc2c(=O)n(C)c3c4cc5c(cc4c(OC(C)=O)cc3c2cc1OC)OCO5               >              100
1  CNCCOc1cc2c3cc(OC)c(OC)cc3c(=O)n(C)c2c2cc3c(cc12)OCO3               =              1.3
2  COc1cc2c(=O)n(C)c3c4cc5c(cc4c(OCCCn4ccnc4)cc3c2cc1OC)OCO5               =               16
